- TEST: chemical genetic growth profiling, strain panel (AID 1159580);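 further: tested at 20 µM; growth read once vehicle control cultures reached saturation at 30 °C; 1 = growth at the plate median or of vehicle wells; lower values mean less growth of the strain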
- CONDITION INFO: S. cerevisiae deletion strains, growth OD, locus YMR223W, strain ubp8, stronger effect = lower value
Among all 5,500 compounds or so, about 2,000 (36%) were called active. Roughly 18% stayed inconclusive and do not appear here. Some of the results follow.
VALUE KIND: normalized growth
The response must contain the number and no unit.

### Prompt Look up and report measured normalized growth for this entry: COc1c(CC=C(C)C)c2c(c3oc(=O)c(-c4ccc(O)cc4)c(O)c13)C=CC(C)(C)O2
### Response 0.925

### Prompt Quote normalized growth reported for OC(CCN1CCCCC1)(c1ccccc1)c1ccccc1 please.
### Response 1.01

### Prompt Please give the documented normalized growth of COC(=O)[C@@H]1C(O)CC[C@H]2CN3CCc4c([nH]c5ccccc45)[C@@H]3C[C@@H]21 (stereo not given in full)
### Response 0.97

### Prompt Provide only the value of recorded normalized growth for C[C@@H]1O[C@@H](O[C@H]2[C@@H](Oc3cc(O)c4c(c3)O[C@H](c3ccc(O)cc3)CC4=O)O[C@H](CO)[C@@H](O)[C@@H]2O)[C@H](O)[C@H](O)[C@H]1O
### Response 0.991

### Prompt Query normalized growth for COC(=O)C1[C@H]2C[C@H]3c4[nH]c5ccccc5c4CCN3C[C@@H]2CC[C@@H]1O (stereo not given in full)
### Response 1.01

### Prompt Answer with the recorded normalized growth for the compound listed here: COc1ccc(C[C@H]2NC[C@H](O)[C@H]2OC(C)=O)cc1
### Response 0.723

### Prompt Look up and state reported normalized growth for O=C1CC(c2ccccc2)Oc2ccccc21 (stereo not given)
### Response 0.961

### Prompt Hello, please tell me recorded normalized growth for this one: CNc1ccccc1C(=O)N1CCc2c([nH]c3ccccc23)C1=O
### Response 1

### Prompt Entry COc1c(CC=C(C)C)c2c(c3oc(=O)c(-c4ccc(OC(C)=O)cc4)c(OC(C)=O)c13)C=CC(C)(C)O2 needs its normalized growth filled in; supply it.
### Response 1.03

### Prompt Report normalized growth for CCCCOc1ccc(C(=O)CCN2CCCCC2)cc1
### Response 0.16

====

Would you mind telling me the reported normalized growth of each entry?
- TEST: chemical genetic growth profiling, strain panel (AID 1159580);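 further: tested at 20 µM; growth read once vehicle control cultures reached saturation at 30 °C; 1 = growth at the plate median or of vehicle wells; lower values mean less growth of the strain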
- CONDITION INFO: S. cerevisiae deletion strains, growth OD, locus YDL035C, strain GPR1, stronger effect = lower value
The whole screen tested about 5,500 compounds, of which about 2,000 (36%) were called active. Roughly 18% stayed inconclusive and do not appear here. The list shows a part of the results.
Please reply with the number alone, leaving off any unit.

### Prompt Tell me measured normalized growth for COc1ccc2c(c1)OC[C@@H](Cc1ccc(OC)c(OC)c1)[C@H]2O please.
### Response 0.984

### Prompt Provide only the value of recorded normalized growth for COc1ccc(CC2c3cc(OC)c(OC)cc3CCN2C)cc1OC (stereo not given)
### Response 0.997

### Prompt Read the entry Cn1cc[nH]c1=S and write its reported normalized growth.
### Response 1.01

### Prompt Identify normalized growth associated with the compound COc1cc(OC)c2c(c1)O[C@H](c1ccc(OC)c(OC)c1)[C@@H](O)C2
### Response 1.04

### Prompt Please list normalized growth recorded for the compound CO[C@H]1C[C@H](O[C@H]2[C@H](C)[C@@H](OC3O[C@H](C)C[C@H](N(C)C)[C@H]3O)[C@@H](C)C[C@]3(CO3)C(=O)[C@H](C)[C@@H](O)[C@@H](C)[C@@H](C)OC(=O)[C@@H]2C)O[C@@H](C)[C@@H]1O (stereo not given in full)
### Response 1.01
